target: human PAH with the R408W mutation (Homo sapiens, UniProt P00439, R408W); construct: expressed in transfected cells; assay: Cell Based Phenylalanine Flux Assay; conditions: A375 cells expressing human R408W PAH; 24 hrs compound incubation; 13C-Tyrosine by LC-MS; average where tested multiple times; read-out: AC50;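 further: Ten-point dose curve from 2-fold serial dilutions, run in duplicate at 0.5% DMSO final, tracer step used 20 µM sepiapterin and 800 µM labeled phenylalanine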
Sequence (P00439 whole entry R408W): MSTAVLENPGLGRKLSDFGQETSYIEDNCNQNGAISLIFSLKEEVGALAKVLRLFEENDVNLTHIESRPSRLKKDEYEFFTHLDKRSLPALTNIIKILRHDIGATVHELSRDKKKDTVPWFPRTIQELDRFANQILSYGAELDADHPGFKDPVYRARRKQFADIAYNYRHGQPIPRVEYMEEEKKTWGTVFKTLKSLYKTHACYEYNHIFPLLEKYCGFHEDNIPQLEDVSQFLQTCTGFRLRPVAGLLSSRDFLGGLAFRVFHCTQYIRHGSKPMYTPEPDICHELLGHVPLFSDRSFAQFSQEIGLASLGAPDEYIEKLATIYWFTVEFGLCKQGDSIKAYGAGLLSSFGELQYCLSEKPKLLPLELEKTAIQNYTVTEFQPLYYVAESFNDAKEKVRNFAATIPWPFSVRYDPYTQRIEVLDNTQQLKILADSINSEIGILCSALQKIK
Listed below: AC50 values for each entry.
value.type: AC50

mol.smiles	value.type	assay.result
Cc1cccc2cc([C@@H]3c4nc[nH]c4CCN3C(=O)c3nnc(-c4cnn(C)c4)o3)nn12	AC50	0.5 to 1 µM
O=C(c1ccnn1C(F)F)N1CCc2[nH]cnc2[C@@H]1c1cc2cc(C(F)(F)F)ccn2n1	AC50	1 to 5 µM
O=C(c1nnc(-c2cnccn2)o1)N1CCc2[nH]cnc2[C@H]1c1cc2c(Cl)cccn2n1	AC50	< 0.5 µM
Cn1ccc(-c2nnc(C(=O)N3CCc4[nH]cnc4[C@H]3c3cc4ccccn4n3)o2)n1	AC50	1 to 5 µM
O=C(c1nnc(-c2cnccn2)o1)N1CCc2[nH]cnc2[C@H]1c1cc2cccc(Cl)n2n1	AC50	< 0.5 µM
CC(F)(F)c1ncc(C(=O)N2CCc3[nH]cnc3[C@@H]2c2cc3ccccn3n2)s1	AC50	1 to 5 µM
COc1cccn2nc([C@H]3c4nc[nH]c4CCN3C(=O)c3nnc(-c4ccccn4)o3)cc12	AC50	> 5 µM
O=C(c1nnc(-c2cccnc2)o1)N1CCc2[nH]cnc2[C@@H]1c1cc2cccc(C(F)(F)F)n2n1	AC50	1 to 5 µM
C[C@@H](O)c1nc(C(F)F)c(C(=O)N2CCc3[nH]cnc3[C@@H]2c2cc3c(F)cccn3n2)o1	AC50	> 5 µM
Cc1cc(F)ccc1-c1nnc(C(=O)N2CCc3[nH]cnc3[C@@H]2c2cc3ccccn3n2)o1	AC50	1 to 5 µM
Cn1nc(C(F)F)cc1C(=O)N1CCc2[nH]cnc2[C@H]1c1cc2c(Cl)cccn2n1	AC50	< 0.5 µM
Cc1cccn2nc([C@@H]3c4nc[nH]c4CCN3C(=O)c3nnc(-c4cn(C)cn4)o3)cc12	AC50	0.5 to 1 µM
O=C(c1nnc(C2CC2)o1)N1CCc2[nH]cnc2[C@H]1c1cc2cccc(F)n2n1	AC50	0.5 to 1 µM
N#Cc1ncoc1C(=O)N1CCc2[nH]cnc2[C@@H]1c1cc2ccc(Cl)cn2n1	AC50	> 5 µM
Cc1ccc2cc([C@@H]3c4nc[nH]c4CCN3C(=O)c3oc(C(C)(C)O)nc3C(F)F)nn2c1	AC50	< 0.5 µM
Cc1cccn2nc([C@@H]3c4nc[nH]c4CCN3C(=O)c3nnc(C(C)(C)C)o3)cc12	AC50	< 0.5 µM

These data points were gathered from patent US12673961B2.
